Biological target: human MMP-13 (Homo sapiens, UniProt P45452)
Experiment: Inhibitory activity against MMP-13 (fluorogenic MCA substrate)
Conditions: activated human MMP-13, 37° C. for 12 hours
Property Measured: pIC50
Give bare numbers, as −log10 of the molar value.

**Query** Recorded pIC50 of "COc1ccc(CCC[C@@H]2Sc3ccc(C(=O)O)cc3N(CC(=O)NO)C2=O)cc1" , please.
**Result** 7.36

Values were extracted from patent US7879843B2.
